The measurements presented in this section are drawn from ChEMBL document CHEMBL6083193.

Listing: IC50 of selected compounds
- Test system: A2780
- test description: Cytotoxicity against human A2780 cells assessed as reduction in cell viability by MTT assay
- Format: functional, cell-based
Numeric only. Scale: nM

Take a look at these entries with their results.
1) Cc1ccc(NC(=O)c2ccc(-c3nsc(-c4csc(-c5ccncc5)n4)n3)cc2)cc1    140
2) COc1ccc(NC(=O)c2ccc(-c3nsc(-c4csc(-c5ccncc5)n4)n3)cc2)cc1    140
3) COc1cc(NC(=O)c2ccc(-c3nsc(-c4csc(-c5ccncc5)n4)n3)cc2)cc(OC)c1    140

Continue with the next compound.
Problem: What IC50 value was documented for this compound, COc1cc(NC(=O)c2ccc(-c3nsc(-c4csc(-c5ccncc5)n4)n3)cc2)cc(OC)c1OC ?
Solution: 140

====

Listing: pIC50 of selected compounds
- System: A549
- test description: Cytotoxicity against human A549 cells assessed as reduction in cell viability incubated for 24 hrs by MTT assay
- Assay type: functional, cell-based
- test parameters: A549, 24 h
Notebook: values listed as pIC50 are -log10 of the concentration (mol/L).

Take a look at these entries with their results.
1) O=C(CSc1nnc(Nc2ccccc2)s1)N1N=C(c2ccccc2)CC1c1ccc([N+](=O)[O-])cc1 (stereo not drawn)    5.81
2) C=CCNc1nnc(SCC(=O)N2N=C(c3ccccc3)CC2c2ccc([N+](=O)[O-])cc2)s1 (stereo not drawn)    5.29

Continue with the next compound.
Problem: What pIC50 value was documented for this compound, O=C(CSc1nnc(Nc2ccc(Cl)cc2)s1)N1N=C(c2ccccc2)CC1c1ccc([N+](=O)[O-])cc1 (stereo not drawn) ?
Solution: 5.07

====

- test description: Inhibition of Alpha-amylase (unknown origin)
- Parameters: species or system Homo sapiens
Listing: pIC50 of selected compounds
Notebook: values listed as pIC50 are -log10 of the concentration (mol/L).

Take a look at these entries with their results.
1. Cc1cccc(CN2C(=O)/C(=N\Nc3nncs3)c3ccccc32)c1    5.59
2. S=C(Nc1ccc(Cl)c(Cl)c1)Nc1nsc(Nc2ccc(Cl)c(Cl)c2)n1    5.89
3. O=[N+]([O-])c1cccc(NC(=S)Nc2nsc(Nc3ccc(F)cc3)n2)c1    5.89
4. Cc1ccc(NC(=S)Nc2nsc(Nc3ccc(Cl)cc3)n2)cc1    5.89

Problem: What pIC50 value was documented for this compound, FC(F)(F)c1cccc(Nc2nc(NC(=S)Nc3ccccc3)ns2)c1 ?
Solution: 5.89

====

- assay system: Alpha glucosidase (Homo sapiens, UniProt O43451+P10253+P14410+Q2M2H8)
- test description: Inhibition of Alpha-glucosidase (unknown origin)
- Assay type: protein assay
metric name: IC50 (nM)
Numeric only. Scale: nM

Take a look at these entries with their results.
1. O=[N+]([O-])c1cccc(NC(=S)Nc2nsc(Nc3ccc(F)cc3)n2)c1    2200
2. S=C(Nc1ccc(Cl)c(Cl)c1)Nc1nsc(Nc2ccc(Cl)c(Cl)c2)n1    2200
3. FC(F)(F)c1cccc(Nc2nc(NC(=S)Nc3ccccc3)ns2)c1    2200
4. O=[N+]([O-])c1cccc(NC(=S)Nc2nsc(Nc3cccc([N+](=O)[O-])c3)n2)c1    2200
5. Fc1ccccc1NC(=S)Nc1nsc(Nc2ccc(Cl)c(Cl)c2)n1    2200
6. COc1cccc(NC(=S)Nc2nsc(Nc3ccc(Cl)c(Cl)c3)n2)c1    2200

Continue with the next compound.
Problem: Please state recorded IC50 (tested on Alpha glucosidase (Homo sapiens, UniProt O43451+P10253+P14410+Q2M2H8)) of O=[N+]([O-])c1ccccc1NC(=S)Nc1nsc(Nc2cccc(C(F)(F)F)c2)n1
Solution: 2200

====

Listing: IC50 of selected molecules
- assay system: Alpha glucosidase (Homo sapiens, UniProt O43451+P10253+P14410+Q2M2H8)
- test description: Inhibition of Alpha-glucosidase (unknown origin)
- Assay type: protein assay

Take a look at these entries with their results.
1. Cc1cccc(CN2C(=O)/C(=N\Nc3nncs3)c3ccccc32)c1    < 500 µM
2. CCc1ccc(C2SCC(=O)N2c2nnc(-c3ccccc3)s2)cc1 (stereo not drawn)    < 500 µM

Continue with the next molecule.
Problem: What IC50 value was documented for this molecule, CSc1ccc(C2SCC(=O)N2c2nnc(-c3ccccc3)s2)cc1 (stereo not drawn) ?
Solution: < 500 µM
